test system: Escherichia coli; test: Inhibition of ATP synthase in Escherichia coli relative to control; details: concentration not given here
Recorded Metric: inhibition (%)
Report the value in % with no unit label.

Request - read-out inhibition | tested on Escherichia coli | compound O=c1c(O[C@@H]2O[C@H](CO)[C@@H](O)[C@H](O)[C@H]2O)c(-c2ccc(O)c(O)c2)oc2cc(O)cc(O)c12 [ISOQUERCETIN]
40

Kindly state the measured inhibition obtained for O=c1c(O)c(-c2ccc(O)c(O)c2)oc2cc(O)cc(O)c12 [QUERCETIN] with Escherichia coli.
80

Form field - read-out: inhibition; system: Escherichia coli; submitted item: Oc1ccc(/C=C/c2cc(O)cc(O)c2)cc1 [RESVERATROL]
40

inhibition of Oc1cc(O)cc(/C=C/c2ccc(O)c(O)c2)c1 [PICEATANNOL] on Escherichia coli?
100

* * *

Assign inhibition to each entry below.
tested on: Escherichia coli; test: Inhibition of F1F0-ATP synthase in Escherichia coli relative to control; set-up: concentration or dose not given beside the values; details: concentration not given here
Answer with the value and then the unit.

What reported inhibition corresponds to Oc1ccc(/N=C/c2ccccc2O)cc1 on Escherichia coli?
100%

Query for Escherichia coli: what inhibition does the record show for Oc1cccc(/C=N/c2ccccc2O)c1 ?
85%

Form field: inhibition recorded for Oc1cc2cc3ccccc3cc2cc1O with Escherichia coli (enter value)
22%

Short answer please: inhibition, Escherichia coli, entry O=[N+]([O-])c1cc(O)ccc1/N=C/c1ccccc1O
100%

Given the entry O=[N+]([O-])c1ccc(/N=C/c2ccccc2O)c(O)c1 , what inhibition was observed with Escherichia coli?
100%

* * *

For each record, write down the corresponding IC50.
biological target: ATP synthase; test: Inhibition of ATP synthase in Mycobacterium tuberculosis H37Rv

Reported IC50, molecule CCN(CC)Cc1cc(N(c2cc(C)nc3cc(Cl)ccc23)S(=O)(=O)c2cccc(Cl)c2Cl)ccc1O : ____
360 to 1830 nM

Reported IC50 for CCN(CC)Cc1cc(N(c2cc(C)nc3cc(Cl)ccc23)S(=O)(=O)c2ccc(Cl)cc2Cl)ccc1O : what is it?
360 to 1830 nM

Endpoint output: IC50 of CCN(CC)Cc1cc(N(c2cc(C)nc3cc(Cl)ccc23)S(=O)(=O)c2ccc([N+](=O)[O-])cc2)ccc1O . Value?
360 to 1830 nM

So what's the measured IC50 for this one? CCN(CC)Cc1cc(N(c2cc(C)nc3cc(Cl)ccc23)S(=O)(=O)c2cc(C)cc(C)c2)ccc1O
360 to 1830 nM

Quick check: IC50 of CCN(CC)Cc1cc(N(c2cc(C)nc3cc(Cl)ccc23)S(=O)(=O)c2ccc(Cl)cc2)ccc1O ?
360 to 1830 nM

Name the recorded IC50 for CCN(CC)Cc1cc(N(c2cc(C)nc3cc(Cl)ccc23)S(=O)(=O)c2ccc(Cl)s2)ccc1O .
360 to 1830 nM

* * *

assay: Inhibition of ATP synthase in Escherichia coli
Exercise: state measured pIC50 for each of the compounds provided.
pIC50 field: float, defined as -log10 of concentration (mol/L).

Form field: reported pIC50 of O=c1c(O[C@@H]2O[C@H](CO)[C@@H](O)[C@H](O)[C@H]2O)c(-c2ccc(O)c(O)c2)oc2cc(O)cc(O)c12 [ISOQUERCETIN]
4.15

// returns reported pIC50 for input Oc1ccc(/C=C/c2cc(O)cc(O)c2)cc1 [RESVERATROL]
4.03

pIC50 lookup needed for O=c1c(O)c(-c2ccc(O)c(O)c2)oc2cc(O)cc(O)c12 [QUERCETIN] , thanks.
4.48

Given the compound Oc1cc(O)cc(/C=C/c2ccc(O)c(O)c2)c1 [PICEATANNOL] , what is its reported pIC50?
4.85

* * *

What inhibition was measured for each of the following?
test system: Escherichia coli; assay: Inhibition of F1F0-ATP synthase in Escherichia coli after 60 mins relative to control; set-up: concentration or dose not given beside the values

What value of inhibition has been reported for the following molecule? O=c1c(O)c(-c2ccc(O)cc2)oc2cc(O)cc(O)c12
40 to 60%

Requested field: inhibition. Item: C[C@@H]1O[C@@H](OC[C@H]2O[C@@H](Oc3c(-c4ccc(O)c(O)c4)oc4cc(O)cc(O)c4c3=O)[C@H](O)[C@@H](O)[C@@H]2O)[C@H](O)[C@H](O)[C@H]1O
40 to 60%

Reported inhibition for O=c1c(O)c(-c2ccccc2)oc2cc(O)cc(O)c12 : what is it?
0 to 20%

If you can, please state the reported inhibition value of O=c1cc(-c2ccc(O)c(O)c2)oc2cc(O)cc(O)c12 .
0 to 20%

I'd like to know its inhibition. The molecule in question is O=c1c(-c2ccc(O)cc2)coc2cc(O)cc(O)c12
40 to 60%

Given the entry CC(N)C12CC3CC(CC(C3)C1)C2 (stereo unspecified) , report its measured inhibition.
100%

So what's the measured inhibition for this one? NC12CC3CC(CC(C3)C1)C2
100%

Return reported inhibition; argument: O=c1cc(-c2ccc(O)cc2)oc2cc(O)cc(O)c12
40 to 60%

Would you kindly share the measured inhibition for COc1cc(C2Oc3cc([C@H]4Oc5cc(O)cc(O)c5C(=O)[C@@H]4O)ccc3OC2CO)ccc1O (stereo partly specified) ?
100%

GET /values?readout=inhibition&item= O=c1c(-c2ccc(O)cc2)coc2cc(O)ccc12
0 to 20%

Recorded inhibition of O=c1c(O)c(-c2ccc(O)cc2O)oc2cc(O)cc(O)c12 , please.
100%

Requested field: inhibition. Item: O=c1cc(-c2ccccc2)oc2cc(O)c(O)c(O)c12
100%

Which inhibition reading was recorded for the molecule COc1ccc(-c2cc(=O)c3c(O)cc(O[C@@H]4O[C@H](CO[C@@H]5O[C@@H](C)[C@H](O)[C@@H](O)[C@H]5O)[C@@H](O)[C@H](O)[C@H]4O)cc3o2)cc1O ?
40 to 60%

Returns the measured inhibition for the input molecule. Input: Oc1cc(O)c2c(c1)OC(c1ccc(O)c(O)c1)C(O)C2 (stereo unspecified)
100%

Look up inhibition for this molecule: O=c1cc(-c2ccccc2)oc2cc(O)cc(O)c12
40 to 60%

Entry COc1ccc([C@@H]2CC(=O)c3c(O)cc(O[C@@H]4O[C@H](CO[C@@H]5O[C@@H](C)[C@H](O)[C@@H](O)[C@H]5O)[C@@H](O)[C@H](O)[C@H]4O)cc3O2)cc1O has what inhibition?
40 to 60%

* * *

system: Mycobacterium tuberculosis; test: Antimicrobial activity against Mycobacterium tuberculosis H37Rv; format: functional, organism-based
Recorded Metric: pIC50
Please report pIC50 as the negative decimal logarithm of the molar concentration, giving only the number.

Form entry - test system: Mycobacterium tuberculosis; read-out: pIC50; compound: O=C(CNC1CCCC1)N(c1ccccc1)c1ccccc1
4.98

What value of pIC50 on Mycobacterium tuberculosis does O=C(CNC1CCCCC1)N(c1ccccc1)c1ccccc1 have?
4.85

* * *

For each of the compounds below, state its inhibition.
test system: Mycobacterium tuberculosis H37Rv; assay: Inhibition of F0F1-ATP synthase in Mycobacterium tuberculosis H37Rv at […] using succinate as substrate preincubated for 10 mins followed by substrate addition by luciferase reporter gene assay relative to control
Could you give me the number in %? Just the number is fine.

Name the recorded inhibition for OC(COC(c1ccccc1)c1cccc2ccccc12)CN1CCN(C(c2ccccc2)c2ccccc2)CC1 (stereo not given) .
98

What value of measured inhibition is listed for COc1cccc(N2CCN(CC(O)COC(c3ccccc3)c3cccc4ccccc34)CC2)c1 (stereo not given) ?
99

// lookup inhibition for NNC(=O)c1ccncc1
99

Reported inhibition for COc1ccccc1N1CCN(CC(O)COC(c2ccccc2)c2cccc3ccccc23)CC1 (stereo not given) : what is it?
90

Given OC(COC(c1ccccc1)c1cccc2ccccc12)CN1CCN(c2ccccc2)CC1 (stereo not given) , state its recorded inhibition.
91

* * *

Can you tell me inhibition for the items I'm about to list?
system: Escherichia coli; assay: Inhibition of F1F0-ATP synthase in Escherichia coli relative to control; parameters: concentration or dose not given beside the values; conditions: concentration not given here
Answer format: numeric, % implied, no suffix.

# input compound: Oc1ccccc1O ; wanted: its inhibition
40

Which inhibition value is on record for Oc1cccc(O)c1 ?
20

Quick one: inhibition of Oc1ccccc1/C=N/c1ccccc1O ?
95

Looking for the measured inhibition of Oc1cc2cc3ccccc3cc2c(O)c1O , can you help?
30

Could you tell me which inhibition is on file for Oc1cccc(/N=C/c2ccccc2O)c1 ?
85

Please give the measured inhibition for this compound: Oc1cccc(/C=N/c2cccc(O)c2)c1
100

Could you share which inhibition value was measured for Oc1ccc(O)cc1 ?
80

Would you mind telling me what inhibition value was observed for Oc1ccc(/C=N/c2cccc(O)c2)cc1 ?
100
